Can you tell me pest or weed control at 1000 g/ha for the items I'm about to list?
- Test system: Solanum nigrum (SOLNI)
- Protocol: Pre-emergence biological efficacy, glasshouse pot test
- Assay type: in vivo
- Condition details: 312 h, pre-emergence, rate 1,000 g/ha, evaluated after 13 days (100=total damage to plant; 0=no damage), read-out: Percentage damage caused to weed species, SOLNI

As a guide, the following entries are already answered.
{"columns": ["Chemical smiles", "pest or weed control at 1000 g/ha"],
 "data": [
  ["COC(=O)c1nc(C2CC2)nc(N(C)Cc2ccc(N)cc2)c1Cl", "100%"],
  ["COC(=O)c1nc(C2CC2)nc(N(C)Cc2ccc(Cl)cc2)c1Cl", "30%"]
]}

Count: 3. Required value per item: pest or weed control at 1000 g/ha.
1. COC(=O)c1nc(-c2ccc(Cl)c(OC)c2F)nc(NCC2CC2)c1Cl
2. CCN(c1nc(C2CC2)nc(C(=O)OC)c1Cl)C1CCCCC1
3. COC(=O)c1nc(-c2ccc(OC)cc2C)nc(NCc2ccco2)c1Cl

1. 70%
2. 60%
3. 0%

---

- Tested on: Amaranthus retoflexus (AMARE)
- Protocol: Pre-emergence biological efficacy, glasshouse pot test
- Format: in vivo
- Condition details: Amaranthus retroflexus, 312 h; pre-emergence, 1,000 g/ha, evaluated after 13 days (100=total damage; 0=no damage); read-out: Percentage damage AMARE
Provide the reported pest or weed control at 1000 g/ha of each item.
Give bare numbers, in %.

In the examples that follow, each entry is paired with its recorded pest or weed control at 1000 g/ha.
{"columns": ["Compound", "Unit descriptor", "pest or weed control at 1000 g/ha"],
 "data": [
  ["COC(=O)c1nc(C2CC2)nc(NCc2c(OC)cccc2OC)c1Cl", "%", 90],
  ["COC(=O)c1nc(C2CC2)nc(NCc2ccc(OC(F)(F)F)cc2)c1Cl", "%", 60],
  ["COC(=O)c1nc(C2CC2)nc(NC(C)C2CC2)c1Cl (stereo not drawn)", "%", 90],
  ["COC(=O)c1nc(C2CC2)nc(NCc2ccccc2)c1Cl", "%", 60],
  ["COC(=O)c1nc(C2CC2)nc(NCc2cccc(I)c2)c1Cl", "%", 40]
]}

Below are 4 compounds. Give each one its pest or weed control at 1000 g/ha.
1. COC(=O)c1nc(C2CC2)nc(NCc2cccc(Br)c2)c1Cl
2. COC(=O)c1nc(C2CC2)nc(NC(c2ccccc2)c2ccc(Cl)cc2)c1Cl (stereo not drawn)
3. COC(=O)c1nc(C2CC2)nc(NC2(/C=C/c3cccs3)CC2)c1Cl
4. O=C(O)c1nc(C2CC2)nc(NCc2ccccc2)c1Cl

1. 50
2. 40
3. 70
4. 90

---

- Test system: Alopecurus myosuroides (ALOMY)
- Protocol: Post-emergence biological efficacy, glasshouse pot test
- Assay type: in vivo
- Condition details: 312 h, Rate 1,000 g/ha, post-emergence spray, evaluated after 13 days (100=total damage to plant; 0=no damage to plant), read-out: Percentage damage caused to weed species, post-emergence, ALOMY
Response key: t means pest or weed control at 1000 g/ha >= 30%; f means pest or weed control at 1000 g/ha < 30%.

{"columns": ["Chemical smiles", "Label class"],
 "data": [
  ["CCN(Cc1ccc(F)cc1)c1nc(C2CC2)nc(C(=O)OC)c1Cl", "t"],
  ["C=CCN(Cc1ccc(Cl)s1)c1nc(C2CC2)nc(C(=O)OC)c1Cl", "f"],
  ["COC(=O)c1nc(-c2ccc(OC(F)(F)F)cc2)nc(NCc2ccco2)c1Cl", "f"],
  ["COC(=O)c1nc(-c2ccc(C)cc2Cl)nc(NCc2ccco2)c1Cl", "f"],
  ["COc1c(Cl)ccc(-c2nc(NCC3CC3)c(Cl)c(C(=O)O)n2)c1F", "t"]
]}

Reported pest or weed control at 1000 g/ha reaches at least 30% for COC(=O)c1nc(-c2ccc(Cl)c(OC)c2F)nc(NCc2ccco2)c1Cl ?
t

Quick check: does COC(=O)c1nc(-c2cc(F)c(Cl)c(F)c2)nc(NCc2ccco2)c1Cl have pest or weed control at 1000 g/ha greater than or equal to 30%?
f

---

- Test system: Alopecurus myosuroides (ALOMY)
- Protocol: Post-emergence biological efficacy, glasshouse pot test
- Type: in vivo
- Condition details: 312 h, post-emergence, 1,000 g/ha, evaluated after 13 days (100=total damage; 0=no damage), read-out: Percentage damage caused to weed species, ALOMY
# label = TRUE if pest or weed control at 1000 g/ha >= 30% else FALSE

Examples from the recorded data:
{"columns": ["Compound", "Tgt", "Label class"],
 "data": [
  ["COC(=O)c1nc(C2CC2)nc(NCCNc2ccccc2)c1Cl [Compound 4-260]", "Alopecurus myosuroides (ALOMY)", "FALSE"],
  ["COC(=O)c1nc(C2CC2)nc(NC(C)CC2CCCC2)c1Cl (stereo not drawn) [Compound 4-230]", "Alopecurus myosuroides (ALOMY)", "FALSE"],
  ["COC(=O)c1nc(C2CC2)nc(NCC(C)c2ccc(Cl)cc2)c1Cl (stereo not drawn) [Compound 4-233]", "Alopecurus myosuroides (ALOMY)", "FALSE"],
  ["Cc1cccnc1CNc1nc(C2CC2)nc(C(=O)O)c1Cl [Compound 1-153]", "Alopecurus myosuroides (ALOMY)", "TRUE"],
  ["COC(=O)c1nc(C2CC2)nc(NCCCc2cccnc2)c1Cl [Compound 4-251]", "Alopecurus myosuroides (ALOMY)", "FALSE"]
]}

Decide: is the reported value of pest or weed control at 1000 g/ha for COC(=O)c1nc(C2CC2)nc(NCC(F)c2ccccc2Br)c1Cl (stereo not drawn) [Compound 4-234] equal to or greater than 30%?
FALSE

---

- Test system: Echinochloa crus-galli (ECHCG)
- Protocol: Pre-emergence biological efficacy, glasshouse pot test
- Assay type: in vivo
- Condition details: 312 h, pre-emergence, rate 1,000 g/ha, evaluated after 13 days (100=total damage to plant; 0=no damage), read-out: Percentage damage caused to weed species, ECHCG
Classify by measured pest or weed control at 1000 g/ha: met if it is equal to or exceeds 20%, not met if it is smaller.

Reference set, count: 5
{"columns": ["Molecule", "Label class"],
 "data": [
  ["COC(=O)c1nc(-c2ccc(C)c([N+](=O)[O-])c2)nc(NCc2ccco2)c1Cl [Compound 256-48]", "not met"],
  ["O=C(NCc1ccco1)c1nc(C2CC2)nc(NCc2ccco2)c1Cl [Compound 265-3]", "met"],
  ["C=CCN(Cc1cccs1)c1nc(C2CC2)nc(C(=O)OC)c1Cl [Compound 151-140]", "not met"],
  ["COC(=O)c1nc(C2CC2)nc(N(C)CC(O)c2ccccc2)c1Cl (stereo not drawn) [Compound 5-257]", "met"],
  ["COC(=O)c1nc(C2CC2)nc(N(C)Cc2ccc(Br)cc2)c1Cl [Compound 5-69]", "not met"]
]}

I'd appreciate it if you could say whether O=C(O)c1nc(-c2ccc(Cl)cc2)nc(NCc2ccco2)c1Cl [Compound 37-125] has pest or weed control at 1000 g/ha at least equal to 20%.
met

Is reported pest or weed control at 1000 g/ha greater than or equal to 20% here: COC(=O)c1nc(C2CC2)nc(N(C)Cc2cccc(F)c2)c1Cl [Compound 5-65]
not met

Say whether COC(=O)c1nc(-c2ccc(Cl)c(Cl)c2F)nc(NCc2ccco2)c1Cl [Compound 226-48] shows pest or weed control at 1000 g/ha of 20% or more.
met

---

Give pest or weed control at 1000 g/ha for every item shown.
- System: Amaranthus retoflexus (AMARE)
- Protocol: Pre-emergence biological efficacy, glasshouse pot test
- Format: in vivo
- Condition details: Amaranthus retroflexus, 312 h; pre-emergence, 1,000 g/ha, evaluated after 13 days (100=total damage; 0=no damage); read-out: Percentage damage AMARE
Give bare numbers, in %.

The following compounds have reported results that may help.
{"columns": ["Compound", "Unit descriptor", "pest or weed control at 1000 g/ha"],
 "data": [
  ["COC(=O)c1nc(C2CC2)nc(NC2(/C=C/c3cc(C(F)(F)F)cc(C(F)(F)F)c3)CC2)c1Cl [Compound 4-22]", "%", 70],
  ["COC(=O)c1nc(C2CC2)nc(NC(C)c2ccc(Cl)cc2)c1Cl (stereo not drawn) [Compound 4-176]", "%", 50]
]}

Please give pest or weed control at 1000 g/ha, item by item, for the list that follows.
1. COC(=O)c1nc(C2CC2)nc(NC(CS(C)(=O)=O)c2ccc(OC)cc2)c1Cl (stereo not drawn) [Compound 4-205]
2. COC(=O)c1nc(C2CC2)nc(NCc2cc(F)c(F)cc2F)c1Cl [Compound 4-120]

1. 0
2. 60

For each of the items listed, what is its pest or weed control at 1000 g/ha?
1. COC(=O)c1nc(C2CC2)nc(NCc2ccc(Cl)c(OC)c2)c1Cl [Compound 4-116]
2. COC(=O)c1nc(C2CC2)nc(N[C@@H](CO)Cc2ccccc2)c1Cl [4-273 (R)]
3. COC(=O)c1nc(C2CC2)nc(N[C@@H](C)c2ccc(OC)cc2)c1Cl [4-181 (S)]
4. COC(=O)c1nc(C2CC2)nc(NCC(C)c2ccccc2)c1Cl (stereo not drawn) [Compound 4-232]
5. COC(=O)c1nc(C2CC2)nc(NCC(F)c2ccc(F)cc2F)c1Cl (stereo not drawn) [Compound 4-238]
6. COC(=O)c1nc(C2CC2)nc(NCC(C)(F)c2cccc(C(F)(F)F)c2)c1Cl (stereo not drawn) [Compound 4-242]
7. COC(=O)c1nc(C2CC2)nc(NC2CCCC2)c1Cl [Compound 4-33]
8. COC(=O)c1nc(C2CC2)nc(N[C@@H](Cc2ccc(Cl)cc2)C(=O)OC)c1Cl [4-285 (S)]

[100, 80, 60, 90, 10, 10, 50, 90]

Provide reported pest or weed control at 1000 g/ha for each item, in the same order as listed.
1. COC(=O)c1nc(C2CC2)nc(N[C@H](CO)c2ccccc2)c1Cl [4-203 (S)]
2. COC(=O)c1nc(C2CC2)nc(NCc2ccc(C)o2)c1Cl [Compound 4-135]
3. COC(=O)c1nc(C2CC2)nc(NC2(/C=C/c3ccc(Cl)cc3Cl)CC2)c1Cl [Compound 4-28]
4. COC(=O)c1nc(C2CC2)nc(Nc2ccc(Cl)c(Cl)c2)c1Cl [Compound 4-42]

1: 70; 2: 100; 3: 90; 4: 30

Fill in pest or weed control at 1000 g/ha for each of the 2 compounds listed.
1. COC(=O)c1nc(C2CC2)nc(N[C@@H](C)C(=O)OCc2ccccc2)c1Cl [4-272 (S)]
2. COC(=O)c1nc(C2CC2)nc(NC2(/C=C/c3ccccc3F)CC2)c1Cl [Compound 4-27]

70
40
